- TARGET_DESC: Human immunodeficiency virus type 1 protease (Human immunodeficiency virus 1) (UniProt Q72874)
- EXPERIMENT_SUMMARY: Percentage inhibition against HIV-1 protease was determined at a concentration of 12.5 uM
In this section we review reported inhibition values for a set of molecules.

MOLECULE: CC(C)[C@H](NC(=O)OCc1ccccc1)C(=O)N[C@@H](Cc1ccccc1)[C@@H](O)[C@H](C(=O)O)[C@H](Cc1ccccc1)NC(=O)OC(C)(C)C
UNITS_OF_MEASURE: %
inhibition: 18
//
MOLECULE: COC(=O)[C@@H]([C@H](O)[C@H](Cc1ccccc1)NC(=O)[C@@H](NC(=O)OCc1ccccc1)C(C)C)[C@H](Cc1ccccc1)NC(=O)OC(C)(C)C
UNITS_OF_MEASURE: %
inhibition: 20
//
MOLECULE: CC(C)[C@H](NC(=O)OCc1ccccc1)C(=O)N[C@@H](Cc1ccccc1)[C@@H](O)[C@@H](CO)[C@H](Cc1ccccc1)NC(=O)[C@@H](CC(N)=O)NC(=O)OCc1ccccc1
UNITS_OF_MEASURE: %
inhibition: 32
//
MOLECULE: CC(C)(C)[C@H](NC(=O)c1nc2ccccc2[nH]1)C(=O)N[C@@H](Cc1ccccc1)[C@H](O)[C@@H](CO)[C@H](Cc1ccccc1)NC(=O)[C@@H](NC(=O)c1nc2ccccc2[nH]1)C(C)(C)C
UNITS_OF_MEASURE: %
inhibition: 42
//
MOLECULE: CC(C)(C)[C@H](NC(=O)c1nc2ccccc2[nH]1)C(=O)N[C@@H](Cc1ccccc1)[C@@H](O)[C@H](CO)[C@H](Cc1ccccc1)NC(=O)[C@@H](NC(=O)c1nc2ccccc2[nH]1)C(C)(C)C
UNITS_OF_MEASURE: %
inhibition: 31
//
MOLECULE: CC(C)(C)[C@H](N)C(=O)N[C@@H](Cc1ccccc1)[C@H](O)[C@@H](CO)[C@H](Cc1ccccc1)NC(=O)[C@@H](N)C(C)(C)C
UNITS_OF_MEASURE: %
inhibition: 8
//
MOLECULE: CC(C)[C@H](NC(=O)OCc1ccccc1)C(=O)N[C@@H](Cc1ccccc1)[C@H](O)[C@@H](CO)[C@H](Cc1ccccc1)NC(=O)C(NC(=O)OCc1ccccc1)C(C)(C)C (single isomer, unassigned; diastereomer B)
UNITS_OF_MEASURE: %
inhibition: 39
//
MOLECULE: CC(C)(C)[C@H](N)C(=O)N[C@@H](Cc1ccccc1)[C@@H](O)[C@H](CO)[C@H](Cc1ccccc1)NC(=O)[C@@H](N)C(C)(C)C
UNITS_OF_MEASURE: %
inhibition: 22
